Item-by-item account of selectivity ratio
Assay: Selectivity index, ratio of CC50 for human HepG2 cells in presence of 10% FBS to MIC for Mycobacterium tuberculosis H37Rv ATCC 25618
Assay type: toxicity
Conditions: read-out: Selectivity Index

structure.smiles.string	selectivity ratio
Fc1cccc2c1-c1c(Cl)cccc1[I+]2	0.8
Cc1ccc(Cl)c2c1[I+]c1ccccc1-2	2.8
FC(F)(F)c1cccc2c1-c1ccccc1[I+]2	0.36
Clc1cccc2c1[I+]c1cccc(Cl)c1-2	2.1
Clc1ccc(Cl)c2c1[I+]c1ccccc1-2	3.7
FC(F)(F)Oc1cccc2c1-c1ccccc1[I+]2	0.99
Cc1cccc2c1-c1cccc(Cl)c1[I+]2	1.8
Fc1cccc2c1-c1c(F)cccc1[I+]2	0.58
COc1ccc(Cl)c2c1[I+]c1ccccc1-2	0.44
Fc1ccc(Cl)c2c1[I+]c1ccccc1-2	10
Fc1cccc2c1-c1cccc(Cl)c1[I+]2	1.4

====

Assay: Selectivity index, ratio of CC50 for human HepG2 cells in presence of 1% FBS to MIC for vancomycin-intermediate Staphylococcus aureus ATCC 700698
Format: toxicity
Settings: read-out: Selectivity Index
Measured selectivity ratio accompanies every entry in the list below.
endpoint.name: selectivity ratio

structure.smiles.string	recorded.result
COc1cccc2c1-c1ccccc1[I+]2	1.1
Cc1ccc2c(c1)[I+]c1ccccc1-2.O=S(=O)([O-])C(F)(F)F	0.41
Cc1ccc2c(c1)-c1ccccc1[I+]2	2.2
Fc1ccc2c(c1)[I+]c1ccccc1-2	0.66
c1ccc2c(c1)[I+]c1ccccc1-2	1.6
N#Cc1ccc2c(c1)-c1ccccc1[I+]2	2.5
Clc1cccc2c1-c1ccccc1[I+]2	0.29
COc1ccc2c(c1)-c1ccccc1[I+]2	0.58
Cc1cccc2c1-c1ccccc1[I+]2	0.07
N#Cc1ccc2c(c1)[I+]c1ccccc1-2	0.37
c1ccc2c(c1)[I+]c1c-2ccc2ccccc12	0.17
Clc1ccc2c(c1)[I+]c1ccccc1-2	0.51
Fc1ccc2c(c1)-c1ccccc1[I+]2	0.67
COc1ccc2c(c1)[I+]c1ccccc1-2	0.78
Clc1ccc2c(c1)-c1ccccc1[I+]2	3.7
Fc1cccc2c1-c1ccccc1[I+]2	2.1

====

Test: Selectivity index, ratio of CC50 for human HepG2 cells in presence of 1% FBS to MIC for Acinetobacter baumannii ATCC 17978
Format: toxicity
Details: read-out: Selectivity Index
Collected selectivity ratio values appear next to each entry.

structure.smiles.string	censoring.operator	selectivity ratio
COc1cccc2c1-c1ccccc1[I+]2	=	1.1
COc1ccc2c(c1)-c1ccccc1[I+]2	=	1.2
c1ccc2c(c1)[I+]c1c-2ccc2ccccc12	=	0.69
Fc1ccc2c(c1)[I+]c1ccccc1-2	=	5.3
COc1ccc2c(c1)[I+]c1ccccc1-2	=	0.39
c1ccc2c(c1)[I+]c1ccccc1-2	=	13
N#Cc1ccc2c(c1)[I+]c1ccccc1-2	=	0.75
Clc1ccc2c(c1)-c1ccccc1[I+]2	=	7.5
N#Cc1ccc2c(c1)-c1ccccc1[I+]2	=	5.1
Clc1ccc2c(c1)[I+]c1ccccc1-2	=	2
Clc1cccc2c1-c1ccccc1[I+]2	<	2.4
Fc1cccc2c1-c1ccccc1[I+]2	=	8.2
Cc1ccc2c(c1)[I+]c1ccccc1-2.O=S(=O)([O-])C(F)(F)F	=	0.81
Cc1ccc2c(c1)-c1ccccc1[I+]2	=	4.2
Fc1ccc2c(c1)-c1ccccc1[I+]2	=	5.3
Cc1cccc2c1-c1ccccc1[I+]2	=	2.3

====

Assay: Selectivity index, ratio of CC50 for human HepG2 cells in presence of 1% FBS to MIC for Klebsiella pneumoniae isolate 248-33-D
Format: toxicity
Details: read-out: Selectivity Index
Threshold 0.3. selectivity ratio below it: 1. selectivity ratio at it or above: -1.

structure.smiles.string	assigned.class
Fc1ccc2c(c1)-c1ccccc1[I+]2	-1
Clc1ccc2c(c1)-c1ccccc1[I+]2	-1
COc1cccc2c1-c1ccccc1[I+]2	-1
Fc1cccc2c1-c1ccccc1[I+]2	-1
Clc1cccc2c1-c1ccccc1[I+]2	1
Cc1ccc2c(c1)-c1ccccc1[I+]2	-1
Clc1ccc2c(c1)[I+]c1ccccc1-2	1
Cc1ccc2c(c1)[I+]c1ccccc1-2.O=S(=O)([O-])C(F)(F)F	1
c1ccc2c(c1)[I+]c1ccccc1-2	-1
Fc1ccc2c(c1)[I+]c1ccccc1-2	1
c1ccc2c(c1)[I+]c1c-2ccc2ccccc12	1
N#Cc1ccc2c(c1)-c1ccccc1[I+]2	-1

====

Test: Selectivity index, ratio of CC50 for human HepG2 cells in presence of 1% FBS to MIC for Klebsiella pneumoniae isolate 224-11-C
Assay type: toxicity
Conditions: read-out: Selectivity Index
Measured selectivity ratio, listed per entry.
endpoint.name: selectivity ratio

structure.smiles.string	censoring.operator	recorded.result
Cc1ccc2c(c1)-c1ccccc1[I+]2	>	0.52
COc1ccc2c(c1)-c1ccccc1[I+]2	>	0.29
Clc1ccc2c(c1)[I+]c1ccccc1-2	=	0.06
COc1ccc2c(c1)[I+]c1ccccc1-2	>	0.11
Clc1cccc2c1-c1ccccc1[I+]2	=	0.08
Cc1cccc2c1-c1ccccc1[I+]2	>	0.04
Fc1cccc2c1-c1ccccc1[I+]2	=	0.51

====

Test system: Mycobacterium tuberculosis
Test: Antimycobacterial activity against Mycobacterium tuberculosis H37Rv ATCC 25618 after 7 days by resazurin dye based assay
Type: functional
Conditions: H37Rv ATCC 25618, 168 h
Criterion met if MIC is below 0.3 µM. Criterion not met if not; exact matches included in Criterion not met.

structure.smiles.string	assigned.class
Cc1ccc2c(c1)-c1ccccc1[I+]2	Criterion not met
Fc1ccc2c(c1)[I+]c1ccccc1-2	Criterion met
COc1ccc(Cl)c2c1[I+]c1ccccc1-2	Criterion not met
COc1ccc2c(c1)[I+]c1ccccc1-2	Criterion met
Clc1ccc2c(c1)[I+]c1ccccc1-2	Criterion met
COc1ccc2c(c1)-c1ccccc1[I+]2	Criterion not met
c1ccc2c(c1)[I+]c1c-2ccc2ccccc12	Criterion not met
Clc1ccc2c(c1)-c1ccccc1[I+]2	Criterion not met
Fc1ccc2c(c1)-c1ccccc1[I+]2	Criterion met
Clc1cccc2c1-c1ccccc1[I+]2	Criterion met
Fc1cccc2c1-c1c(F)cccc1[I+]2	Criterion met
Clc1ccc(Cl)c2c1[I+]c1ccccc1-2	Criterion not met
Fc1cccc2c1-c1ccccc1[I+]2	Criterion met
Cc1cccc2c1-c1ccccc1[I+]2	Criterion met
Fc1cccc2c1-c1c(Cl)cccc1[I+]2	Criterion not met
Fc1ccc(Cl)c2c1[I+]c1ccccc1-2	Criterion met
N#Cc1ccc2c(c1)[I+]c1ccccc1-2	Criterion met
COc1cccc2c1-c1ccccc1[I+]2	Criterion not met
Cc1ccc(Cl)c2c1[I+]c1ccccc1-2	Criterion met
Fc1cccc2c1-c1cccc(Cl)c1[I+]2	Criterion met
Cc1ccc2c(c1)[I+]c1ccccc1-2.O=S(=O)([O-])C(F)(F)F	Criterion not met
Cc1cccc2c1-c1cccc(Cl)c1[I+]2	Criterion met
Clc1cccc2c1[I+]c1cccc(Cl)c1-2	Criterion met
FC(F)(F)c1cccc2c1-c1ccccc1[I+]2	Criterion met
N#Cc1ccc2c(c1)-c1ccccc1[I+]2	Criterion met
FC(F)(F)Oc1cccc2c1-c1ccccc1[I+]2	Criterion met

====

Assay: Selectivity index, ratio of CC50 for human HepG2 cells in presence of 1% FBS to MIC for vancomycin-resistant Staphylococcus aureus ATCC 700699
Type: toxicity
Conditions: read-out: Selectivity Index

structure.smiles.string	selectivity ratio
c1ccc2c(c1)[I+]c1ccccc1-2	1.6
c1ccc2c(c1)[I+]c1c-2ccc2ccccc12	0.17
Cc1ccc2c(c1)[I+]c1ccccc1-2.O=S(=O)([O-])C(F)(F)F	0.398
Clc1ccc2c(c1)-c1ccccc1[I+]2	3.7
Cc1cccc2c1-c1ccccc1[I+]2	0.07
N#Cc1ccc2c(c1)-c1ccccc1[I+]2	2.5
Cc1ccc2c(c1)-c1ccccc1[I+]2	2.2
Fc1ccc2c(c1)[I+]c1ccccc1-2	0.66
Fc1ccc2c(c1)-c1ccccc1[I+]2	1.3
COc1cccc2c1-c1ccccc1[I+]2	1.1
Clc1cccc2c1-c1ccccc1[I+]2	0.61
COc1ccc2c(c1)[I+]c1ccccc1-2	0.78
Fc1cccc2c1-c1ccccc1[I+]2	2.1
COc1ccc2c(c1)-c1ccccc1[I+]2	0.58
N#Cc1ccc2c(c1)[I+]c1ccccc1-2	0.37
Clc1ccc2c(c1)[I+]c1ccccc1-2	0.51

====

Reported selectivity ratio values follow for various compounds
Assay: Selectivity index, ratio of CC50 for human HepG2 cells in presence of 1% FBS to IC50 for CQ-sensitive GFP-fused Plasmodium falciparum D10
Assay type: toxicity
Settings: read-out: Ratio IC50
endpoint.name: selectivity ratio

structure.smiles.string	endpoint.name	recorded.result
Fc1cccc2c1-c1ccccc1[I+]2	selectivity ratio	96
Fc1cccc2c1-c1cccc(Cl)c1[I+]2	selectivity ratio	0.28
Clc1cccc2c1-c1ccccc1[I+]2	selectivity ratio	13
c1ccc2c(c1)[I+]c1c-2ccc2ccccc12	selectivity ratio	5.8
Cc1cccc2c1-c1ccccc1[I+]2	selectivity ratio	37
N#Cc1ccc2c(c1)[I+]c1ccccc1-2	selectivity ratio	62
Cc1cccc2c1-c1cccc(Cl)c1[I+]2	selectivity ratio	0.63
Cc1ccc(Cl)c2c1[I+]c1ccccc1-2	selectivity ratio	0.82
Clc1ccc2c(c1)-c1ccccc1[I+]2	selectivity ratio	194
N#Cc1ccc2c(c1)-c1ccccc1[I+]2	selectivity ratio	531
FC(F)(F)Oc1cccc2c1-c1ccccc1[I+]2	selectivity ratio	0.39
FC(F)(F)c1cccc2c1-c1ccccc1[I+]2	selectivity ratio	0.18
Cc1ccc2c(c1)-c1ccccc1[I+]2	selectivity ratio	500
COc1ccc2c(c1)-c1ccccc1[I+]2	selectivity ratio	213
